# STUDY TARGET: CSNK1A1 (CK1 alpha 1) (Homo sapiens, UniProt P48729)
# Construct: purchased Life Technologies PV 3850
# Sequence (P48729 whole entry): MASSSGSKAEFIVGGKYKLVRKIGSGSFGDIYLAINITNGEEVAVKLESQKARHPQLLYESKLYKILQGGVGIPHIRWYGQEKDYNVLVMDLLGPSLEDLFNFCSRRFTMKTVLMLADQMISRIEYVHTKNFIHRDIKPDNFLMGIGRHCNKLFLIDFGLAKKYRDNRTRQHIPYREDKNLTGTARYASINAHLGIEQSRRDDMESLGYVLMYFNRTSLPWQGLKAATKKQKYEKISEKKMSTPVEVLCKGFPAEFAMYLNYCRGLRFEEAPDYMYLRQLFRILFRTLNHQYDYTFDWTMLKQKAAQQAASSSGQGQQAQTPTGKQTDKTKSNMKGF
# PROTOCOL DETAILS: Z'-LYTE kinase selectivity assay CSNK1A1
# Type: biochemical
PROPERTY LABEL: inhibition at 1 µM (%)

Field: example entries. Status: answers known.
| COMPOUND | STUDY TARGET | inhibition at 1 µM (%) |
| --- | --- | --- |
| C[C@@H]1Cc2nn(C)c(-c3ccccc3)c2-c2nc(Nc3ccn(CCN4CCN(C)CC4)n3)ncc21 | CSNK1A1 (CK1 alpha 1) (Homo sapiens, UniProt P48729) | 16 |
| C[C@@H]1Cc2nn(C)c(-c3ccccc3)c2-c2nc(Nc3ccn(CCN4CCN(CC(=O)OC5CCOCC5)CC4)n3)ncc21 | CSNK1A1 (CK1 alpha 1) (Homo sapiens, UniProt P48729) | 38 |
| COCCN1CCN(CCn2ccc(Nc3ncc4c(n3)-c3c(nn(C)c3-c3ccccc3)C[C@H]4C)n2)CC1 | CSNK1A1 (CK1 alpha 1) (Homo sapiens, UniProt P48729) | 17 |

1. CC(O)CN1CCN(CCn2ccc(Nc3ncc4c(n3)-c3c(nn(C)c3-c3ccccc3)C[C@H]4C)n2)CC1 (stereo partly shown)
2. C[C@@H]1Cc2nn(C)c(-c3ccccc3)c2-c2nc(Nc3ccn(CCN4CCOCC4)n3)ncc21
Field: lower inhibition at 1 µM | Options: 1 / 2 Identify your selection by its label.
1

* * *

# STUDY TARGET: TBK1 (Homo sapiens)
# Construct: purchased Life Technologies PV 3504
# Sequence (Q9UHD2 1-729): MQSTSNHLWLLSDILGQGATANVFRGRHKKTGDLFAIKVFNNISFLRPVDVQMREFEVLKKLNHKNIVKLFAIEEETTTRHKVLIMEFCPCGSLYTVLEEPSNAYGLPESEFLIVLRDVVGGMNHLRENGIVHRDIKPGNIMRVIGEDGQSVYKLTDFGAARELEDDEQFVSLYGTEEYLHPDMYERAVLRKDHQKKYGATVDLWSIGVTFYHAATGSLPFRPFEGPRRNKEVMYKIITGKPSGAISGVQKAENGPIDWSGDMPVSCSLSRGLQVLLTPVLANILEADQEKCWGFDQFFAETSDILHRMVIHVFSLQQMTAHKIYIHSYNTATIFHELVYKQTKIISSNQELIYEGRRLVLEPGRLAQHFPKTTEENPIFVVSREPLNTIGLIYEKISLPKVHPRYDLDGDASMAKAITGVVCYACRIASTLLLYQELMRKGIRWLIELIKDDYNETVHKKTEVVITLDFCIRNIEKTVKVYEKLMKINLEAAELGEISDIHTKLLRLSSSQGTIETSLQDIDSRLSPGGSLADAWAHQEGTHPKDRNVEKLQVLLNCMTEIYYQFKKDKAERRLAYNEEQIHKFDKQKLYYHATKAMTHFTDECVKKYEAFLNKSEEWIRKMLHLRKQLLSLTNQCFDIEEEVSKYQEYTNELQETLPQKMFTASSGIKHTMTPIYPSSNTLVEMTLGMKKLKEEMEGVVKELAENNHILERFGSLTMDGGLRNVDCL
# PROTOCOL DETAILS: Z'-LYTE kinase selectivity assay TBK1
# Format: biochemical
PROPERTY LABEL: inhibition at 1 µM (%)

| COMPOUND | PROPERTY LABEL | MEASURED VALUE |
| --- | --- | --- |
| C[C@@H]1Cc2nn(C)c(-c3ccccc3)c2-c2nc(Nc3ccn(CCN4CCN(CC(C)(C)O)CC4)n3)ncc21 | inhibition at 1 µM | 51 |

A. COCCN1CCN(CCn2ccc(Nc3ncc4c(n3)-c3c(nn(C)c3-c3ccccc3)C[C@H]4C)n2)CC1
B. C[C@@H]1Cc2nn(C)c(-c3ccccc3)c2-c2nc(Nc3ccn(CCN4CCOCC4)n3)ncc21
Field: lower inhibition at 1 µM | Options: A / B Identify your selection by its label.
A
(A: 33%, B: 48%)

* * *

# STUDY TARGET: NEK2 (Homo sapiens)
# Construct: purchased Life Technologies PV 3360
# Sequence (P51955 whole entry): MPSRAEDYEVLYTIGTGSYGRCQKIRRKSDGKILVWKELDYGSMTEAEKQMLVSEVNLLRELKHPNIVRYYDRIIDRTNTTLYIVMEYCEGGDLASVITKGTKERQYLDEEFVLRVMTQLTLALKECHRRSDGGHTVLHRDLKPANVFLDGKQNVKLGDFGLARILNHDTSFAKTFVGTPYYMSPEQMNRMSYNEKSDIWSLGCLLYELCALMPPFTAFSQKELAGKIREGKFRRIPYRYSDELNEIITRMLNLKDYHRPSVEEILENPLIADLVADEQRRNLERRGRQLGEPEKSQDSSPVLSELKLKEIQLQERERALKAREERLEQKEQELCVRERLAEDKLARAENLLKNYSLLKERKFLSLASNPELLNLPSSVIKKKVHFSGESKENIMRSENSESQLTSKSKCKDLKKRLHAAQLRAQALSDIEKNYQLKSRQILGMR
# PROTOCOL DETAILS: Z'-LYTE kinase selectivity assay NEK2
# Type: biochemical
PROPERTY LABEL: inhibition at 1 µM (%)

P. C[C@@H]1Cc2nn(C)c(-c3ccccc3)c2-c2nc(Nc3ccn(CCN4CCN(C)CC4)n3)ncc21
Q. COCCN1CCN(CCn2ccc(Nc3ncc4c(n3)-c3c(nn(C)c3-c3ccccc3)C[C@H]4C)n2)CC1
// compare measured inhibition at 1 µM, left P , right Q , return larger Identify your selection by its label.
Q
(Q: 24%, P: 15%)

* * *

# STUDY TARGET: MAP3K8 (COT) (Homo sapiens, UniProt P41279)
# Construct: purchased Life Technologies PV 4313
# Sequence (P41279 whole entry): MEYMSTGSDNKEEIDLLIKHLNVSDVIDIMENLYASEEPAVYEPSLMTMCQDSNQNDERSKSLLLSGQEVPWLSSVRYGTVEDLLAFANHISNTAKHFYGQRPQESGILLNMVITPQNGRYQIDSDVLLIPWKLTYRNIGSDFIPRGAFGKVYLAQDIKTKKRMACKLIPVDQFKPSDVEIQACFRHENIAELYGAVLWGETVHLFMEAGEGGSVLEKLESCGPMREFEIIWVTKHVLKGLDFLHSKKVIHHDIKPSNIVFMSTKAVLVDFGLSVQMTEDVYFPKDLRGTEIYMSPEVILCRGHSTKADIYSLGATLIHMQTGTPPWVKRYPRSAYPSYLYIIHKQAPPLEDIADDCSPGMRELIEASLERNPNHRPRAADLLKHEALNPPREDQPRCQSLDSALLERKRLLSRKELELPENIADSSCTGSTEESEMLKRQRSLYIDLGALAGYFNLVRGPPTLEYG
# PROTOCOL DETAILS: Z'-LYTE kinase selectivity assay MAP3K8
# Assay type: biochemical
PROPERTY LABEL: inhibition at 1 µM (%)

Field: example entries. Status: answers known.
| COMPOUND | MEASUREMENT UNIT | inhibition at 1 µM |
| --- | --- | --- |
| C[C@@H]1Cc2nn(C)c(-c3ccccc3)c2-c2nc(Nc3ccn(CCN4CCN(CC(C)(C)O)CC4)n3)ncc21 | % | 45 |
| C[C@@H]1Cc2nn(C)c(-c3ccccc3)c2-c2nc(Nc3ccn(CCN4CCN(CC5CCCO5)CC4)n3)ncc21 (stereo partly shown) | % | 37 |

P. C[C@@H]1Cc2nn(C)c(-c3ccccc3)c2-c2nc(Nc3ccn(CCN4CCN(CC(=O)OC5CCOCC5)CC4)n3)ncc21
Q. COCCN1CCN(CCn2ccc(Nc3ncc4c(n3)-c3c(nn(C)c3-c3ccccc3)C[C@H]4C)n2)CC1
// compare measured inhibition at 1 µM, left P , right Q , return larger Identify your selection by its label.
P

* * *

# STUDY TARGET: LCK (Homo sapiens, UniProt P06239)
# Construct: purchased Life Technologies P 3043
# Sequence (P06239 whole entry): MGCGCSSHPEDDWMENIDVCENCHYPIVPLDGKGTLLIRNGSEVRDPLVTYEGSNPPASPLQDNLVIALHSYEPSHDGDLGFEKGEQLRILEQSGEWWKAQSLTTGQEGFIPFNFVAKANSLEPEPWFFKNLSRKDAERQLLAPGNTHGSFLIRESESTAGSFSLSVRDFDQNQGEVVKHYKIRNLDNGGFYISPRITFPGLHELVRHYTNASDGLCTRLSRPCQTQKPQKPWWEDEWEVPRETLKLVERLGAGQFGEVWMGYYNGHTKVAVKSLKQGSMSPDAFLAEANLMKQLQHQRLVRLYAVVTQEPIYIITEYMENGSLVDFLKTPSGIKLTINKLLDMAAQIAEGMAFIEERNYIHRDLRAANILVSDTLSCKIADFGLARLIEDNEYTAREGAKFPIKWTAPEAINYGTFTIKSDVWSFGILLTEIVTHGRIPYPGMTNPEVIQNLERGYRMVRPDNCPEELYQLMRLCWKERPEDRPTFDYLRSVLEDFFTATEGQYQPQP
# PROTOCOL DETAILS: Z'-LYTE kinase selectivity assay LCK
# Type: biochemical
PROPERTY LABEL: inhibition at 1 µM (%)

| MOLECULE | inhibition at 1 µM [%] |
| --- | --- |
| C[C@@H]1Cc2nn(C)c(-c3ccccc3)c2-c2nc(Nc3ccn(CCN4CCN(CC5CCCO5)CC4)n3)ncc21 (stereo partly drawn) | 80 |

I. C[C@@H]1Cc2nn(C)c(-c3ccccc3)c2-c2nc(Nc3ccn(CCN4CCN(C)CC4)n3)ncc21
II. C[C@@H]1Cc2nn(C)c(-c3ccccc3)c2-c2nc(Nc3ccn(CCN4CCN(CC(=O)OC5CCOCC5)CC4)n3)ncc21
// compare measured inhibition at 1 µM, left I , right II , return larger Identify your selection by its label.
I
(I: 85%, II: 59%)

* * *

# STUDY TARGET: FGFR1 (Homo sapiens, UniProt P11362)
# Construct: purchased Life Technologies PV 3146
# Sequence (P11362 22-822): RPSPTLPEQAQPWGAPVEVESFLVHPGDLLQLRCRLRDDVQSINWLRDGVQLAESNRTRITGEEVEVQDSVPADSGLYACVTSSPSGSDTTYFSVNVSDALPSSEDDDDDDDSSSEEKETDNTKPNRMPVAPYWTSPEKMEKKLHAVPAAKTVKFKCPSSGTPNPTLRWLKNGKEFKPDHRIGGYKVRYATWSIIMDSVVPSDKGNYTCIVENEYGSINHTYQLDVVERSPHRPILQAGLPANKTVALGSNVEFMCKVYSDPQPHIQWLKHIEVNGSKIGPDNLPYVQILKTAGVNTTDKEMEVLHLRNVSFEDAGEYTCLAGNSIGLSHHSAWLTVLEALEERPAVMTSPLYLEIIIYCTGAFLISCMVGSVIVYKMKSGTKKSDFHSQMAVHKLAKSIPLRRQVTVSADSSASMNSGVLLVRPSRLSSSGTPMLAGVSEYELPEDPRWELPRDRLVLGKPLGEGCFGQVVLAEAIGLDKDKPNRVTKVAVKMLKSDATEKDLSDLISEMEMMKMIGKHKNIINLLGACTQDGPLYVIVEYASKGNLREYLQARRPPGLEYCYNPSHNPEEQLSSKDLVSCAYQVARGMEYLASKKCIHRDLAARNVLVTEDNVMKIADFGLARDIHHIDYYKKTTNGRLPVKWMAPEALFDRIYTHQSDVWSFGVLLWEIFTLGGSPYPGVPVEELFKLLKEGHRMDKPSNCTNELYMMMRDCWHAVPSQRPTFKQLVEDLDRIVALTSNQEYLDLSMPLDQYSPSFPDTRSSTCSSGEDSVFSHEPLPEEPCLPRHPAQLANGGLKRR
# PROTOCOL DETAILS: Z'-LYTE kinase selectivity assay FGFR1
# Assay type: biochemical
PROPERTY LABEL: inhibition at 1 µM (%)

| COMPOUND | STUDY TARGET | PROPERTY LABEL | MEASURED VALUE |
| --- | --- | --- | --- |
| C[C@@H]1Cc2nn(C)c(-c3ccccc3)c2-c2nc(Nc3ccn(CCN4CCN(CC5CCCO5)CC4)n3)ncc21 (stereo partly shown) [Compound I-9] | FGFR1 (Homo sapiens, UniProt P11362) | inhibition at 1 µM | 32 |
| COCCN1CCN(CCn2ccc(Nc3ncc4c(n3)-c3c(nn(C)c3-c3ccccc3)C[C@H]4C)n2)CC1 [Compound I-11] | FGFR1 (Homo sapiens, UniProt P11362) | inhibition at 1 µM | 28 |
| C[C@@H]1Cc2nn(C)c(-c3ccccc3)c2-c2nc(Nc3ccn(CCN4CCN(CC(C)(C)O)CC4)n3)ncc21 [Compound I-3] | FGFR1 (Homo sapiens, UniProt P11362) | inhibition at 1 µM | 34 |
| C[C@@H]1Cc2nn(C)c(-c3ccccc3)c2-c2nc(Nc3ccn(CCN4CCN(C)CC4)n3)ncc21 [Compound I-1] | FGFR1 (Homo sapiens, UniProt P11362) | inhibition at 1 µM | 30 |
| C[C@@H]1Cc2nn(C)c(-c3ccccc3)c2-c2nc(Nc3ccn(CCN4CCOCC4)n3)ncc21 [Compound I-2] | FGFR1 (Homo sapiens, UniProt P11362) | inhibition at 1 µM | 40 |
| CC(O)CN1CCN(CCn2ccc(Nc3ncc4c(n3)-c3c(nn(C)c3-c3ccccc3)C[C@H]4C)n2)CC1 (stereo partly shown) [Compound I-7] | FGFR1 (Homo sapiens, UniProt P11362) | inhibition at 1 µM | 34 |
| C[C@@H]1Cc2nn(C)c(-c3ccccc3)c2-c2nc(Nc3ccn(CCN4CCN(CC(=O)OC5CCOCC5)CC4)n3)ncc21 [Compound I-8] | FGFR1 (Homo sapiens, UniProt P11362) | inhibition at 1 µM | 29 |
